- testTarget: GRID2IP_2, A4D2P6
- Sequence (A4D2P6 272-370): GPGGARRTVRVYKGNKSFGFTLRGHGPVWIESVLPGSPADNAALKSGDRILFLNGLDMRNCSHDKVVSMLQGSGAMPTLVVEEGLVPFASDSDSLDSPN
- assayProtocol: holdup assay
- Set-up: key: below the threshold = too weak to quantify, mostly under pKd 3.1 to 4
- experimentalParameters: plain residues with an end cap or a label only (N-terminal biotin on a linker: ado-ado)

>  <binder>
QLSFNTDTLC [ABCA2, Q9BZC7]

>  <pKd>
below the threshold

$$$$
>  <binder>
MQHQRTHTRV [ZSCAN30, Q86W11]

>  <pKd>
3.77

$$$$
>  <binder>
TISFTQTSQF [SLC1A1, P43005]

>  <pKd>
below the threshold

$$$$
>  <binder>
ARGPPRESEV [FAM110D, Q8TAY7]

>  <pKd>
below the threshold

$$$$
>  <binder>
LPAVCYDIDI [PTTG2, Q9NZH5]

>  <pKd>
below the threshold

$$$$
>  <binder>
TGLWKHETTV [ADGRA3, Q8IWK6]

>  <pKd>
below the threshold

$$$$
>  <binder>
SFISKKEWYV [NECTIN1, Q15223]

>  <pKd>
below the threshold

$$$$
>  <binder>
KPGKGSETVV [FZD4, Q9ULV1]

>  <pKd>
below the threshold

$$$$
>  <binder>
PSHPRLQTHV [KIRREL2, Q6UWL6]

>  <pKd>
4.08

$$$$
>  <binder>
AEASVACSLC [PTGIR, P43119]

>  <pKd>
3.77

$$$$
>  <binder>
MHIQEKGFHV [EPHA6, Q9UF33]

>  <pKd>
below the threshold

$$$$
>  <binder>
AQRARSPSDV [GPR12, P47775]

>  <pKd>
below the threshold

$$$$
>  <binder>
KSRVAFFEEL [NF2, P35240]

>  <pKd>
3.59

$$$$
>  <binder>
GTGYDRKDYV [CLDN3, O15551]

>  <pKd>
3.68

$$$$
>  <binder>
EDGESWEYQI [TRPV6, Q9H1D0]

>  <pKd>
below the threshold

$$$$
>  <binder>
NTLNRKTTPV [CACNG8, Q8WXS5]

>  <pKd>
3.94

$$$$
